Below, each of the compounds is paired with its reported T at 96 h (tumor uptake) value.
- Tested on: PC-3 PIP tumor-bearing mice
- method: Biodistribution study in SCID mice bearing PC3-PIP tumor
- Format: in vivo, mouse
- condition-label: PC3 PIP tumor-bearing mice, 96 h
Answer with the value's number alone.

O=C(O)CC[C@H](NC(=O)N[C@@H](CCCCNC(=O)[C@H](Cc1ccc2ccccc2c1)NC(=O)[C@H]1CC[C@H](CNC(=O)[C@H](CCCCNC(=O)CCCOC(=O)CNC(=O)CN2CCN(CC(=O)O)CCN(CC(=O)O)CCN(CC(=O)O)CC2)NC(=O)[C@H](CCC(=O)O)NC(=O)CCCc2ccc(I)cc2)CC1)C(=O)O)C(=O)O [Example I-3, 4pIBA-Glu-Lys(-ESL1-DOTA)-Trx-2NaI-eKuE] : 6.3

Field T at 96 h (tumor uptake) (entry O=C(O)CC[C@H](NC(=O)N[C@@H](CCCCNC(=O)[C@H](Cc1ccc2ccccc2c1)NC(=O)[C@H]1CC[C@H](CNC(=O)[C@H](CCCCNC(=O)CN2CCN(CC(=O)O)CCN(CC(=O)O)CCN(CC(=O)O)CC2)NC(=O)[C@H](CCC(=O)O)NC(=O)CCCc2ccc(I)cc2)CC1)C(=O)O)C(=O)O [Example C-2, 4pIBA-Glu-Lys(DOTA)-Trx-2NaI-eKuE, reference compound] ) reads 20.0

###

Below, each of the compounds is paired with its reported Relative Binding Affinity value.
- assayed-target: PSMA (Homo sapiens, UniProt Q04609)
- Construct: host or cells: LNCaP cells
- Sequence (Q04609 whole entry): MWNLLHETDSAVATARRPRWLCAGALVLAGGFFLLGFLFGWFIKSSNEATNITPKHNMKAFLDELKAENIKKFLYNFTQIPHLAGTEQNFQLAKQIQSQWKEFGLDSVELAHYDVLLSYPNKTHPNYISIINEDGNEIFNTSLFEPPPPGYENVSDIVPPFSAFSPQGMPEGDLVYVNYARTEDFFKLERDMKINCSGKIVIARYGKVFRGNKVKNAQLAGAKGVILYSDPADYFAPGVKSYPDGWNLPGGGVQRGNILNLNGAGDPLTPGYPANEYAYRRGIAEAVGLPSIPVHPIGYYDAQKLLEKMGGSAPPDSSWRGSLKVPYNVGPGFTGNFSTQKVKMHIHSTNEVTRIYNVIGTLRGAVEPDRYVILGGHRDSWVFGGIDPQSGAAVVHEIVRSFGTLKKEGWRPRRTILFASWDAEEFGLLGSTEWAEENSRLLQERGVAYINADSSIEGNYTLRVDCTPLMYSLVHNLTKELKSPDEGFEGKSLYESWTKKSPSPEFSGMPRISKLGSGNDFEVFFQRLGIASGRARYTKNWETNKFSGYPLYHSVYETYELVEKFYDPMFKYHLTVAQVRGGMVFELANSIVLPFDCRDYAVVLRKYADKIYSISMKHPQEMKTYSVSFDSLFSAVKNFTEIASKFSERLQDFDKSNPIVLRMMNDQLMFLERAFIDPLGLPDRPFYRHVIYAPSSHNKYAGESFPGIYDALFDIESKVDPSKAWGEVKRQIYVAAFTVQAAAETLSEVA
- method: Cell-based radioligand competitive binding assay (^125I-C-8, LNCaP cells)
- condition-label: based on the mean value of the IC50 number; C-1 = 1.00
- Description: The culture medium was replaced with fresh medium every 2-3 days. Experiments were performed with cells at 70-80% confluence. The final volume in each well was maintained at 200 μL and insufficient volume was adjusted by the binding buffer.
Answer with the value's number alone.

O=C(O)CC[C@H](NC(=O)N[C@@H](CCCCNC(=O)[C@H](Cc1ccc2ccccc2c1)NC(=O)C1CCC(CNC(=O)CN2CCN(CC(=O)O)CCN(CC(=O)O)CCN(CC(=O)O)CC2)CC1)C(=O)O)C(=O)O (some centres unmarked) [Example C-1, reference compound] : 1.00

Next up:
Field Relative Binding Affinity (entry O=C(O)CC[C@H](NC(=O)N[C@@H](CCCCNC(=O)[C@H](Cc1ccc2ccccc2c1)NC(=O)[C@H]1CC[C@H](CNC(=O)[C@H](CCCCNC(=O)CCC(=O)NCCSSCCNC(=O)CN2CCN(CC(=O)O)CCN(CC(=O)O)CCN(CC(=O)O)CC2)NC(=O)[C@H](CCC(=O)O)NC(=O)CCCc2ccc(I)cc2)CC1)C(=O)O)C(=O)O [Example I-4, 4pIBA-Glu-Lys(-SSL1-DOTA)-Trx-2NaI-eKuE] ) reads 0.95

###

- method: Ex-vivo mouse plasma stability study of ^177Lu-labeled compounds
- Type: in vitro ADME
- condition-label: 37° C., 1 h
Below, each of the molecules is paired with its reported % Remaining 1 h value.
Write the answer as a number in %, unit excluded.

O=C(O)CC[C@H](NC(=O)N[C@@H](CCCCNC(=O)[C@H](Cc1ccc2ccccc2c1)NC(=O)C1CCC(CNC(=O)CN2CCN(CC(=O)O)CCN(CC(=O)O)CCN(CC(=O)O)CC2)CC1)C(=O)O)C(=O)O (stereo partly shown) [Example C-1, reference compound] : 100
O=C(O)CC[C@H](NC(=O)N[C@@H](CCCCNC(=O)[C@H](Cc1ccc2ccccc2c1)NC(=O)[C@H]1CC[C@H](CNC(=O)[C@H](CCCCNC(=O)CCCOC(=O)CNC(=O)CN2CCN(CC(=O)O)CCN(CC(=O)O)CCN(CC(=O)O)CC2)NC(=O)[C@H](CCC(=O)O)NC(=O)CCCc2ccc(I)cc2)CC1)C(=O)O)C(=O)O [Example I-3, 4pIBA-Glu-Lys(-ESL1-DOTA)-Trx-2NaI-eKuE] : 88.6

Field % Remaining 1 h (entry O=C(O)CCCCCCCCCCCCCCCCC(=O)N[C@@H](CCC(=O)NCCOCCOCC(=O)NCCOCCOCC(=O)N[C@@H](CCCCNC(=O)CCCOC(=O)CNC(=O)CNC(=O)CNC(=O)CNC(=O)CN1CCN(CC(=O)O)CCN(CC(=O)O)CCN(CC(=O)O)CC1)C(=O)NCCOCCOCC(=O)NC[C@H]1CC[C@H](C(=O)N[C@@H](Cc2ccc3ccccc3c2)C(=O)NCCCC[C@H](NC(=O)N[C@@H](CCC(=O)O)C(=O)O)C(=O)O)CC1)C(=O)O [Example I-46] ) reads 95.1

Field % Remaining 1 h (entry O=C(O)CC[C@H](NC(=O)N[C@@H](CCCCNC(=O)[C@H](Cc1ccc2ccccc2c1)NC(=O)[C@H]1CC[C@H](CNC(=O)[C@H](CCCCNC(=O)CN2CCN(CC(=O)O)CCN(CC(=O)O)CCN(CC(=O)O)CC2)NC(=O)[C@H](CCC(=O)O)NC(=O)CCCc2ccc(I)cc2)CC1)C(=O)O)C(=O)O [Example C-2, 4pIBA-Glu-Lys(DOTA)-Trx-2NaI-eKuE, reference compound] ) reads 100
